# procedure summary: Metabolic stability in mouse liver microsomes
# Type: in vitro ADME
property: 60 min remaining amount (%)

Here's what some known entries look like.
Prompt: Please look up its 60 min remaining amount: CN1CCN(c2ccc(OC(F)(F)F)c(Nc3ncc4c(n3)-c3c(c(C(=O)NN)nn3CCO)CC4)c2)CC1 [Compound 13]
Response: 38.6

Prompt: Another compound to look at: Cn1nc(C(N)=O)c2c1-c1nc(Nc3cc(N4CCN(CCO)CC4)ccc3OC(F)(F)F)ncc1CC2 [Compound 20]
Response: 15.9

Prompt: Another compound to look at: CN1CCN(c2ccc(OC(F)(F)F)c(Nc3ncc4c(n3)-c3c(c(C(N)=O)nn3CCC#N)CC4)c2)CC1 [Compound 4]
Response: 1.33

Prompt: Another compound to look at: CN1CCN(c2ccc(OC(F)(F)F)c(Nc3ncc4ccc5c(C(N)=O)nn(C)c5c4n3)c2)CC1 [Compound 3]
Response: 4.32

Prompt: Another compound to look at: CN1CCN(c2ccc(OC(F)(F)F)c(Nc3ncc4ccc5c(C(=O)NO)nn(CCO)c5c4n3)c2)CC1 [Compound 19]
Response: 22.0

Prompt: Another compound to look at: CN1CCN(c2ccc(OC(F)(F)F)c(Nc3ncc4c(n3)-c3c(c(C(N)=O)nn3CCO)CC4)c2)CC1 [Onvansertib, reference compound]
Response: 21.5

Prompt: Another compound to look at: CN1CCN(c2ccc(OC(F)(F)F)c(Nc3ncc4c(n3)-c3c(c(C(N)=O)cn3CCO)CC4)c2)CC1 [Compound 2]
Response: 26.7

Prompt: Another compound to look at: CCc1sc(C(N)=O)c2c1-c1nc(Nc3cc(N4CCN(C)CC4)ccc3OC(F)(F)F)ncc1CC2 [Compound 7]
Response: 2.92

Prompt: Another compound to look at: CN1CCN(c2ccc(OC(F)(F)F)c(Nc3ncc4ccc5c(C(N)=O)nn(CCF)c5c4n3)c2)CC1 [Compound 18]
Response: 4.32

Prompt: Another compound to look at: CN1CCN(c2ccc(OC(F)(F)F)c(Nc3ncc4c(n3)-c3c(c(C(=O)NNC(N)=O)nn3C)CC4)c2)CC1 [Compound 12]
Response: 26.9

A = CN1CCN(c2ccc(OCC(F)(F)F)c(Nc3ncc4c(n3)-c3c(c(C(N)=O)nn3CCO)CC4)c2)CC1 [Compound 24]
B = Cn1nc(C(N)=O)c2ccc3cnc(Nc4cc(N5CCN(CCO)CC5)ccc4OC(F)(F)F)nc3c21 [Compound 16]
C = CN1CCN(c2ccc(OC(F)(F)F)c(Nc3ncc4c(n3)-c3c(c(C(=O)NO)nn3CCF)CC4)c2)CC1 [Compound 17]
Prompt: Please list these in order of increasing 60 min remaining amount. Thank you! Give the order by naming the labels one after another as requested.
Response: C, B, A

###

# procedure summary: Metabolic stability in mouse liver microsomes
# Assay type: in vitro ADME
# protocol conditions: pH 7.4
# Description: a. Preparation of phosphate buffer: The phosphate buffer powder was dissolved in 100 mL of pure water to prepare a phosphate buffer solution with a pH of 7.4 and a concentration of 100 mM, which was stored in a 4° C. refrigerator for later use. b. […] f. […] After centrifugation, the supernatant was removed, diluted with water according to the needs of each compound, and analyzed by LC-MS. […] T1/2 and CLint(mic) were calculated by the following formula. […]
property: half-life at 1 µM (min)
Report only the number, with the unit min understood.

Prompt: Please look up its half-life at 1 µM: "CN1CCN(c2ccc(OC(F)(F)F)c(Nc3ncc4ccc5c(C(=O)NO)nn(CCO)c5c4n3)c2)CC1"
Response: 28.5

###

# procedure summary: Metabolic stability in human liver microsomes
# Assay type: in vitro ADME
# protocol conditions: pH 7.4
# Description: a. Preparation of phosphate buffer: The phosphate buffer powder was dissolved in 100 mL of pure water to prepare a phosphate buffer solution with a pH of 7.4 and a concentration of 100 mM, which was stored in a 4° C. refrigerator for later use. b. […] f. […] After centrifugation, the supernatant was removed, diluted with water according to the needs of each compound, and analyzed by LC-MS. […] T1/2 and CLint(mic) were calculated by the following formula. […]
property: CLint scaled at 1 µM (mL/min/kg)
Report only the number, with the unit mL/min/kg understood.

Prompt: Please look up its CLint scaled at 1 µM: "CN1CCN(c2ccc(OC(F)(F)F)c(Nc3ncc4ccc5c(C(=O)NO)nn(CCO)c5c4n3)c2)CC1"
Response: 19.6

###

# procedure summary: Metabolic stability in mouse liver microsomes
# Type: in vitro ADME
# protocol conditions: mouse, pH 7.4
property: CLint scaled at 1 µM (mL/min/kg)

Here's what some known entries look like.
Prompt: Please look up its CLint scaled at 1 µM: "CN1CCN(c2ccc(OC(F)(F)F)c(Nc3ncc4c(n3)-c3c(c(C(=O)NNC(N)=O)nn3C)CC4)c2)CC1"
Response: 163

Prompt: Another compound to look at: "CN1CCN(c2ccc(OCC(F)(F)F)c(Nc3ncc4c(n3)-c3c(c(C(N)=O)nn3CCO)CC4)c2)CC1"
Response: 74.4

Prompt: Another compound to look at: "CN1CCN(c2ccc(OC(F)(F)F)c(Nc3ncc4c(n3)-c3c(c(C(=O)NO)nn3CCF)CC4)c2)CC1"
Response: 470

Prompt: Another compound to look at: "CN1CCN(c2ccc(OC(F)(F)F)c(Nc3ncc4ccc5c(C(N)=O)nn(C)c5c4n3)c2)CC1"
Response: 409

Prompt: Another compound to look at: "CCc1sc(C(N)=O)c2c1-c1nc(Nc3cc(N4CCN(C)CC4)ccc3OC(F)(F)F)ncc1CC2"
Response: 940

A = CN1CCN(c2ccc(OC(F)(F)F)c(Nc3ncc4c(n3)-c3c(c(C(N)=O)nn3CCO)CC4)c2)CC1 [Onvansertib, reference compound]
B = CN1CCN(c2ccc(OC(F)(F)F)c(Nc3ncc4c(n3)-c3c(c(C(N)=O)nn3CCC#N)CC4)c2)CC1
C = CN1CCN(c2ccc(OC(F)(F)F)c(Nc3ncc4c(n3)-c3c(c(C(=O)NN)nn3CCO)CC4)c2)CC1
Prompt: Rank by CLint scaled at 1 µM (largest to smallest). Give the order by naming the labels one after another as requested.
Response: B, A, C

###

# target: PLK1 kinase (Homo sapiens, UniProt P53350)
# Construct: purchased Carnabio (Carna Biosciences) 05-157
# Sequence (P53350 whole entry): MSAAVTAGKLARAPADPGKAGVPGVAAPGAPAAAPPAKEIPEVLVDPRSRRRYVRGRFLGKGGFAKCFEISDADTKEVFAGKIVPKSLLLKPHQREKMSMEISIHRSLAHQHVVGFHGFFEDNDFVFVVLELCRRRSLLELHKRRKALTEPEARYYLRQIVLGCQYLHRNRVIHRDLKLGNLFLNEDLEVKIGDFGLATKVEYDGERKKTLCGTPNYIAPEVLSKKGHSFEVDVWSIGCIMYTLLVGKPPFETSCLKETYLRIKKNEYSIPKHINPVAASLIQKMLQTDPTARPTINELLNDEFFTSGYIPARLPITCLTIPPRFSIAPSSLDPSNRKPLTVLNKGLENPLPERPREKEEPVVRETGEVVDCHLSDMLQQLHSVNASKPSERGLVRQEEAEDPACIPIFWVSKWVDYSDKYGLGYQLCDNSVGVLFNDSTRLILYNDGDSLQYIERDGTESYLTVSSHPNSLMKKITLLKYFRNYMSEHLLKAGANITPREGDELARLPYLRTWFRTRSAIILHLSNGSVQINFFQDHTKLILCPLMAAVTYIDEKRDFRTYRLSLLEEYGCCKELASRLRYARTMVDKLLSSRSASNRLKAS
# procedure summary: Inhibitory activity on PLK1 kinase
# Type: biochemical
# protocol conditions: PLK1 kinase, highest concentration 1 μM, 10 points; read-out: IC50
pIC50: −log10 of the molar value.
property: pIC50

Prompt: Please look up its pIC50: "CCc1sc(C(N)=O)c2c1-c1nc(Nc3cc(N4CCN(C)CC4)ccc3OC(F)(F)F)ncc1CC2"
Response: 9.10

Prompt: Another compound to look at: "Cn1nc(C(N)=O)c2c1-c1nc(Nc3cc(N4CCN(CCO)CC4)ccc3OC(F)(F)F)ncc1CC2"
Response: 8.89

Prompt: Another compound to look at: "CN1CCN(c2ccc(OC(F)(F)F)c(Nc3ncc4c(n3)-c3c(c(C(=O)NOCCO)nn3C)CC4)c2)CC1"
Response: 8.74

P = CN1CCN(c2ccc(OC(F)(F)F)c(Nc3ncc4c(n3)-c3c(c(C(N)=O)cn3CCO)CC4)c2)CC1
Q = CN1CCN(c2ccc(OC(F)(F)F)c(Nc3ncc4c(n3)-c3c(c(C(=O)NN)nn3CCO)CC4)c2)CC1
R = CN1CCN(c2ccc(OC(F)(F)F)c(Nc3ncc4c(n3)-c3c(c(C(=O)NS(=O)(=O)C5CC5)nn3CCO)CC4)c2)CC1
S = Cn1nc(C(N)=O)c2ccc3cnc(Nc4cc(N5CCN(CCO)CC5)ccc4OC(F)(F)F)nc3c21
Prompt: Rank by pIC50 (largest to smallest). Give the order by naming the labels one after another as requested.
Response: P, Q, S, R
(P: 9.00, Q: 8.60, S: 8.32, R: 6.49)

###

# procedure summary: Metabolic stability in rat liver microsomes
# Assay type: in vitro ADME
# Protocol: a. Preparation of phosphate buffer: The phosphate buffer powder was dissolved in 100 mL of pure water to prepare a phosphate buffer solution with a pH of 7.4 and a concentration of 100 mM, which was stored in a 4° C. refrigerator for later use. b. […] f. […] After centrifugation, the supernatant was removed, diluted with water according to the needs of each compound, and analyzed by LC-MS. […] T1/2 and CLint(mic) were calculated by the following formula. […]
property: Clearance rate

Prompt: Please look up its Clearance rate: "CN1CCN(c2ccc(OCC(F)(F)F)c(Nc3ncc4c(n3)-c3c(c(C(N)=O)nn3CCO)CC4)c2)CC1"
Response: Medium

Prompt: Another molecule to look at: "CN1CCN(c2ccc(OC(F)(F)F)c(Nc3ncc4ccc5c(C(N)=O)nn(C)c5c4n3)c2)CC1"
Response: High

Prompt: Another molecule to look at: "CN1CCN(c2ccc(OC(F)(F)F)c(Nc3ncc4c(n3)-c3c(c(C(N)=O)cn3CCO)CC4)c2)CC1"
Response: Medium

Prompt: Another molecule to look at: CN1CCN(c2ccc(OC(F)(F)F)c(Nc3ncc4c(n3)-c3c(c(C(N)=O)nn3CCO)CC4)c2)CC1 [Onvansertib, reference compound]
Response: Medium
